The reported measurements were obtained from ChEMBL document CHEMBL5291721.

Target Entity: Thromboxane A2 receptor (Homo sapiens); also: assay procedure not described here
Sequence (P21731 whole entry): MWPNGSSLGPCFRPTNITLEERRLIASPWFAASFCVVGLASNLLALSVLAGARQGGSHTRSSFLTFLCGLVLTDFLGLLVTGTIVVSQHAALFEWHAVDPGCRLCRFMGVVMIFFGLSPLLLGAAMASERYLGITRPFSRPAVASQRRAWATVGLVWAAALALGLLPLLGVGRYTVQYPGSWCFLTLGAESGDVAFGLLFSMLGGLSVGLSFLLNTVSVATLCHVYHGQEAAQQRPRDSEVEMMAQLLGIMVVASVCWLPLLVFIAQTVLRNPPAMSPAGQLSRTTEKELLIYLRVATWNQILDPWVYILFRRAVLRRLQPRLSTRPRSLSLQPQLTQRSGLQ
Property Label: AC50

Sample records with AC50:
# Molecule, AC50
records = [
    ("O=C(Nc1c(Cl)cncc1Cl)c1ccc(OC(F)F)c(OCC2CC2)c1", "> 30 µM"),
    ("[H]/N=C(/N)N[C@H]1[C@H](O)[C@@H](O)[C@H](O[C@@H]2O[C@@H](C)[C@](O)(C=O)[C@H]2O[C@@H]2O[C@@H](CO)[C@H](O)[C@@H](O)[C@@H]2NC)[C@@H](N/C(N)=N\\[H])[C@@H]1O", "> 30 µM"),
    ("C[C@@H]1CCC[C@H](C)N1NC(=O)c1ccc(Cl)c(S(N)(=O)=O)c1 [CLOPAMIDE]", "> 30 µM"),
]

Please fill in: AC50 reported for O=C(CCCN1CCC(n2c(O)nc3ccccc32)CC1)c1ccc(F)cc1 = > 30 µM

* * *

Assay system Sodium-dependent serotonin transporter (Homo sapiens); read-out recorded as AC50. Also: assay procedure not described here.

Sample records with AC50:
# Molecule, Target Entity, AC50
measured = [
    ("Cc1cc(CC(=O)O)n(C)c1C(=O)c1ccc(Cl)cc1 [ZOMEPIRAC]", "Sodium-dependent serotonin transporter (Homo sapiens)", "> 30 µM"),
    ("O=C(CCCN1CCC2(CC1)C(=O)NCN2c1ccccc1)c1ccc(F)cc1", "Sodium-dependent serotonin transporter (Homo sapiens)", "0.0086 µM"),
    ("CCN(CC)CCOC(=O)c1ccc(N)cc1Cl", "Sodium-dependent serotonin transporter (Homo sapiens)", "> 30 µM"),
]

Please fill in: AC50 reported for N=C(N)NCCCCCCC(=O)NC(O)C(=O)NCCCCNCCCN (configuration not stated) = > 30 µM

Please fill in: AC50 reported for C[C@@H]1C[C@H]2[C@@H]3C[C@H](F)C4=CC(=O)C=C[C@]4(C)[C@@]3(F)[C@@H](O)C[C@]2(C)[C@H]1C(=O)CO = > 30 µM

Please fill in: AC50 reported for O=C1CN=C(c2ccccc2)c2cc(Cl)ccc2N1 = > 10 µM

Please fill in: AC50 reported for N#Cc1ccccc1-c1cc(-c2ccccn2)cn(-c2ccccc2)c1=O = > 30 µM

Please fill in: AC50 reported for CNC[C@H](O)c1cccc(O)c1 = > 10 µM

Please fill in: AC50 reported for O=C(Nc1nc(-c2cc(Cl)cs2)c(N2CCN(C3CCCCC3)CC2)s1)c1cnc(N2CCC(C(=O)O)CC2)c(Cl)c1 = > 10 µM

Please fill in: AC50 reported for CCOc1cc(CC(=O)N[C@@H](CC(C)C)c2ccccc2N2CCCCC2)ccc1C(=O)O [REPAGLINIDE] = > 30 µM

Please fill in: AC50 reported for O=C(O)c1ccccc1OP(=O)(O)O = > 30 µM

Please fill in: AC50 reported for CCCN(CCC)CCc1cccc2c1CC(=O)N2 = > 30 µM
